# Test system: MDA-MB-468
# assay info: Antiproliferative activity against MDA-MB-468 cells at 50 uM by MTT assay
# Assay type: functional, cell-based
# reported conditions: Homo sapiens
Activity calls are given as the source filed them. No cut-off for these calls is given here.
Outcome codes: yes (active), no (inactive)

Cc1cccc(-n2ncc3c(NCc4ccc5c(c4)OCO5)ncnc32)c1	yes
Nc1[nH]nc2nc(-c3ccco3)c3c(c12)CCCC3	yes
Oc1[nH]c2ccc(I)cc2c1/N=N/c1cccc2cccnc12	yes
O=C(CSc1nc(O)cc(-c2ccccc2)n1)N1c2ccccc2CCc2ccccc21	yes
C=CCOc1ccc2c(c1)C(=NO)c1cc(OCC=C)ccc1-2	yes
Cc1ccc(-c2cc(NC(=O)c3cccs3)[nH]n2)cc1	no
O=NC1=C(NNc2ccccc2)C(=O)c2ccccc21	yes

----------
# Tested on: BT-474
# assay info: Antiproliferative activity against BT474 cells at 50 uM by MTT assay
# Assay type: functional, cell-based
# reported conditions: Homo sapiens
Active and inactive are the calls of the source. The calls are words filed in the database; no cut-off is given here.
Outcome codes: Yes = active, No = inactive

O=C(CSc1nc(O)cc(-c2ccccc2)n1)N1c2ccccc2CCc2ccccc21	Yes
O=NC1=C(NNc2ccccc2)C(=O)c2ccccc21	Yes
C=CCOc1ccc2c(c1)C(=NO)c1cc(OCC=C)ccc1-2	Yes
Cc1ccc(-c2cc(NC(=O)c3cccs3)[nH]n2)cc1	No
Cc1cccc(-n2ncc3c(NCc4ccc5c(c4)OCO5)ncnc32)c1	Yes
Nc1[nH]nc2nc(-c3ccco3)c3c(c12)CCCC3	Yes
Oc1[nH]c2ccc(I)cc2c1/N=N/c1cccc2cccnc12	Yes

----------
# system name: Epidermal growth factor receptor (Homo sapiens)
# Sequence (P00533 whole entry): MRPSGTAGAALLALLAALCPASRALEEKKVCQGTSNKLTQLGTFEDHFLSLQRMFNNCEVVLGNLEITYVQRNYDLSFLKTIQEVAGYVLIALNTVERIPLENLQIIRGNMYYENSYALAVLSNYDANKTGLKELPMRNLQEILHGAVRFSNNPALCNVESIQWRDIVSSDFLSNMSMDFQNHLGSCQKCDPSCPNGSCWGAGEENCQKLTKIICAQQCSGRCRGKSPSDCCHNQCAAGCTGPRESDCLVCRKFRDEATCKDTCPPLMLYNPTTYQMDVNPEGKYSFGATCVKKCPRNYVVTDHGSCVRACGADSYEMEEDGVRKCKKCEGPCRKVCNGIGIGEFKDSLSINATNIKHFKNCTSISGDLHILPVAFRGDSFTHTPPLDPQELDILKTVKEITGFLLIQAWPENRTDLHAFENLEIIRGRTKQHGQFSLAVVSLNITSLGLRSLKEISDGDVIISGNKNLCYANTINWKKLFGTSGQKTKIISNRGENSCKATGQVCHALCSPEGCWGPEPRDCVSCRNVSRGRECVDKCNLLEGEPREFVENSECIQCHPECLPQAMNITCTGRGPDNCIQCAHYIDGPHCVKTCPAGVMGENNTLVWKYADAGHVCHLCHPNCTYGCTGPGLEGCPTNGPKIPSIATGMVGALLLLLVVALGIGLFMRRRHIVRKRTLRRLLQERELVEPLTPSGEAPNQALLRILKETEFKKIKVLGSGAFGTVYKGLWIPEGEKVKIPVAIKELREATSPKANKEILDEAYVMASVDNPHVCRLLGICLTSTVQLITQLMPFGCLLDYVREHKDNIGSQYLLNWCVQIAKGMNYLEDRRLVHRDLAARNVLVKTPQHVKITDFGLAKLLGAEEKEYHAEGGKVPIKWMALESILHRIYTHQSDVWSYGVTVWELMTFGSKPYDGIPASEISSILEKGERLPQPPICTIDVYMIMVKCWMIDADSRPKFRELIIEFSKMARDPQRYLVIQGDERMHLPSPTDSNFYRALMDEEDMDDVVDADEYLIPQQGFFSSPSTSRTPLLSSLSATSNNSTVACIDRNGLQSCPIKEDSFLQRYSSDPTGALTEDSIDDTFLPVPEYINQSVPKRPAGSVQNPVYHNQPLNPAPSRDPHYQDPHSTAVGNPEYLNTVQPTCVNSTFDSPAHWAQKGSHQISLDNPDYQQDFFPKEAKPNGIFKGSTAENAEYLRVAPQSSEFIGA
# assay info: Inhibition of EGFR kinase activity at 100 uM in presence of 2.5 uM ATP
# Set-up: scale not given: the % may be the effect or the level left
property name: Activity (%)

C=CCOc1ccc2c(c1)C(=NO)c1cc(OCC=C)ccc1-2	55.3
Nc1[nH]nc2nc(-c3ccco3)c3c(c12)CCCC3	44.5
Oc1[nH]c2ccc(I)cc2c1/N=N/c1cccc2cccnc12	50
O=C(CSc1nc(O)cc(-c2ccccc2)n1)N1c2ccccc2CCc2ccccc21	41.1
O=NC1=C(NNc2ccccc2)C(=O)c2ccccc21	50.3
Cc1ccc(-c2cc(NC(=O)c3cccs3)[nH]n2)cc1	44.1
Cc1cccc(-n2ncc3c(NCc4ccc5c(c4)OCO5)ncnc32)c1	48.4
